Data provenance is patent US20220265817A1.

- Test system: HBV rcDNA in AML12-HBV10 cells
- ASSAY METHOD TEXT: AML12-HBV10 cell culture system, rcDNA quantitation using bDNA assay, MacSynergy II
- Assay type: cell-based, mouse hepatocyte cell line
- STUDY CONDITIONS: Hepatitis B virus, AML12HBV10, in Mus musculus, 48 h, read-out: Inhibitor EC50
OBSERVABLE: pEC50
Remember, pEC50 is on a log scale: it is -log10 of the molar concentration.

Ask: Any idea what pEC50 was measured for C=C1[C@H](CO)[C@@H](O)C[C@@H]1n1cnc2c(=O)[nH]c(N)nc21 ?
Result: 7.92

====

# maps each entry to its IC50
- Test system: HBV genome
- ASSAY METHOD TEXT: siRNA IC50 (Table A)
- Parameters: species or system Hepatitis B virus
[UNA] = unlocked nucleic acid; m = 2'-O-methyl; r = 2'-OH (RNA)
Just so you know, I need the unit written after the number.

Completed entries (count: 2):
12m: siRNA duplex SEQ ID NO: 23 and 24 targeting the HBV genome (chain 1 GCCGAUCCAUACUGCGGAAUU; chain 2 UUCCGCAGUAUGGAUCGGCUU; chain 1: sugars from the 5' end [UNA]rrmrmrrrrrrmmrrmrrr[UNA], backbone not given here; chain 2: sugars from the 5' end rrrrrrrmrrrrmrrrrmrrr, backbone not given here) [Compound 12m] : 0.16 nM
8m: siRNA duplex SEQ ID NO: 15 and 16 targeting the HBV genome (chain 1 GCUCAGUUUACUAGUGCCAUU; chain 2 UGGCACUAGUAAACUGAGCUU; chain 1: sugars from the 5' end [UNA]rmrrmrrrrrmrmrrrrr[UNA][UNA], backbone not given here; chain 2: sugars from the 5' end r14 m1 r4 [UNA]2, backbone not given here) [Compound 8m] : 0.24 nM

The record that follows has no IC50 shown yet.
Ask: // IC50 lookup, key: 4m: siRNA duplex SEQ ID NO: 7 and 8 targeting the HBV genome (chain 1 GCUCAGUUUACUAGUGCCAUU; chain 2 UGGCACUAGUAAACUGAGCUU; chain 1: sugars from the 5' end [UNA]rmmrmrrrrrrrrrrrmr[UNA][UNA], backbone not given here; chain 2: sugars from the 5' end rrrrrrrrrmrrrrrrrmr[UNA][UNA], backbone not given here) [Compound 4m]
Result: 0.31 nM

====

- Test system: D type HBV in primary human hepatocytes (HBeAg)
- ASSAY METHOD TEXT: microbe, parasite or virus in culture
- Assay type: cell-based
- STUDY CONDITIONS: Hepatitis B virus, Hepatocyte, 576 h, read-out: Inhibitor B EC50 HBeAg
- Method: The mouse liver perfusion was applied to isolate PHHs. The isolated hepatocytes were further purified by Percoll. […] HBsAg/HBeAg in the culture supernatants harvested on days 8 were measured by the HBsAg/HBeAg ELISA kit (Autobio) according to the manual. […] The inhibition rates were calculated with the formula below. The combination effect was analyzed by the MacSynergy software. % Inh. HBeAg=[1-HBeAg quantity of sample/HBV quantity of DMSO control]×100.
OBSERVABLE: EC50
Please provide the amount together with its unit, number first.

Ask: I'd like to know its EC50. The compound in question is CC[C@@H](C)NS(=O)(=O)c1ccc(F)c(C(=O)Nc2ccc(F)c(F)c2)c1
Result: 8.58 µM

====

- System: D type HBV in primary human hepatocytes (HBeAg)
- ASSAY METHOD TEXT: microbe, parasite or virus in culture
- Format: cell-based
- STUDY CONDITIONS: Hepatitis B virus, Hepatocyte, read-out: Inhibitor B EC50 HBeAg
OBSERVABLE: pEC50
// pEC50 here means minus log10 of the molar concentration (mol/L)

Ask: Can you share its pEC50? I mean this compound: O=C(Nc1ccc(F)c(F)c1)c1cc(S(=O)(=O)NC2CCCC2)ccc1F
Result: 4.97

====

- Tested on: HBV genome
- ASSAY METHOD TEXT: siRNA IC50 (Table A)
- Design: species or system Hepatitis B virus
[UNA] = unlocked nucleic acid; m = 2'-O-methyl; r = 2'-OH (RNA)
OBSERVABLE: IC50 (pM)
Kindly answer with a numeric value in pM, unit omitted.

2m: siRNA duplex SEQ ID NO: 3 and 4 targeting the HBV genome (chain 1 GCUCAGUUUACUAGUGCCAUU; chain 2 UGGCACUAGUAAACUGAGCUU; chain 1: sugars from the 5' end [UNA]rmmrmrrrrrrrrrrrmrr[UNA], backbone not given here; chain 2: sugars from the 5' end r9 m1 r7 m1 r3, backbone not given here) [Compound 2m] : 370
14m: siRNA duplex SEQ ID NO: 27 and 28 targeting the HBV genome (chain 1 GCUCAGUUUACUAGUGCCAUU; chain 2 UGGCACUAGUAAACUGAGCUU; chain 1: sugars from the 5' end [UNA]rmrrmrrrrrmrmrrrrrr[UNA], backbone not given here; chain 2: sugars from the 5' end r14 m1 r6, backbone not given here) [Compound 14m] : 160

Ask: Requested read-out IC50, target or system HBV genome, entry 13m: siRNA duplex SEQ ID NO: 25 and 26 targeting the HBV genome (chain 1 GCCGAUCCAUACUGCGGAAUU; chain 2 UUCCGCAGUAUGGAUCGGCUU; chain 1: sugars from the 5' end [UNA]rrmrmrrrrrrmmrrmrr[UNA][UNA], backbone not given here; chain 2: sugars from the 5' end rrrrrrrmrrrrmrrrrmr[UNA][UNA], backbone not given here) [Compound 13m]
Result: 200

====

Form field: EC50 (one value per entry).
- Tested on: D type HBV in primary human hepatocytes
- ASSAY METHOD TEXT: microbe, parasite or virus in culture
- Type: cell-based
- STUDY CONDITIONS: Hepatitis B virus, Hepatocyte; HBV DNA; determined in an earlier separate experiment; read-out: Inhibitor EC50
Respond with a number, then the unit of measure.

CC[C@@H](C)NS(=O)(=O)c1ccc(F)c(C(=O)Nc2ccc(F)c(F)c2)c1 : 876 nM

Ask: Please report the recorded EC50 for O=C(Nc1ccc(F)c(F)c1)c1cc(S(=O)(=O)NC2CCCC2)ccc1F .
Result: 1020 nM

====

- System: HBV rcDNA in HepDE19 cells
- ASSAY METHOD TEXT: HepDE19 cell culture system, rcDNA quantitation using bDNA assay, MacSynergy II
- Format: cell-based, human hepatoma cell line
- STUDY CONDITIONS: Hepatitis B virus, HepDE19; rcDNA by bDNA assay; ETV; read-out: Inhibitor B EC50
OBSERVABLE: pEC50
pEC50 is defined as minus the log10 of a concentration measured in mol/L.

Ask: Param readout = pEC50; param system = HBV rcDNA in HepDE19 cells; param query = C=C1[C@H](CO)[C@@H](O)C[C@@H]1n1cnc2c(=O)[nH]c(N)nc21 ; response: value
Result: 8.75

====

- Test system: D type HBV in primary human hepatocytes (HBeAg)
- ASSAY METHOD TEXT: microbe, parasite or virus in culture
- Type: cell-based
- STUDY CONDITIONS: Hepatitis B virus, Hepatocyte, read-out: Inhibitor A EC50
pEC50: −log10 of the molar value.
OBSERVABLE: pEC50

Ask: Recorded pEC50 for CC(C)OC(=O)OCOP(=O)(CO[C@H](C)Cn1cnc2c(N)ncnc21)OCOC(=O)OC(C)C.O=C(O)/C=C/C(=O)O [TDF, tenofovir disoproxil fumarate, reference compound] , please?
Result: < 7.00

====

// values below are reported pIC50
- Test system: HBV genome
- ASSAY METHOD TEXT: siRNA IC50 (Table A)
- Set-up: species or system Hepatitis B virus
[UNA] = unlocked nucleic acid; m = 2'-O-methyl; r = 2'-OH (RNA)
Here pIC50 is given on a logarithmic scale as minus log10 of the concentration in mol/L.

6m: siRNA duplex SEQ ID NO: 11 and 12 targeting the HBV genome (chain 1 CUGGCUCAGUUUACUAGUGUU; chain 2 CACUAGUAAACUGAGCCAGUU; chain 1: sugars from the 5' end [UNA]mmmrrrrrrrrrrmrmrrr[UNA], backbone not given here; chain 2: sugars from the 5' end rrrrrmrrrrrrmrmrrrrrr, backbone not given here) [Compound 6m] : 10.30

Ask: Data request, read-out pIC50, for 3m: siRNA duplex SEQ ID NO: 5 and 6 targeting the HBV genome (chain 1 CCGUGUGCACUUCGCUUCAUU; chain 2 UGAAGCGAAGUGCACACGGUU; chain 1: sugars from the 5' end [UNA]rrrmmrrrrrmrrrmmrr[UNA][UNA], backbone not given here; chain 2: sugars from the 5' end rrrrrrrrrrrmrrrrrmr[UNA][UNA], backbone not given here) [Compound 3m]
Result: 10.22

Ask: Look up pIC50 for this substance: 15m: siRNA duplex SEQ ID NO: 29 and 30 targeting the HBV genome (chain 1 CUGGCUCAGUUUACUAGUGUU; chain 2 CACUAGUAAACUGAGCCAGUU; chain 1: sugars from the 5' end [UNA]mmrrmrrrrrmrrrrrrr[UNA][UNA], backbone not given here; chain 2: sugars from the 5' end r14 m1 r4 [UNA]2, backbone not given here) [Compound 15m]
Result: 9.77

Ask: Entry 5m: siRNA duplex SEQ ID NO: 9 and 10 targeting the HBV genome (chain 1 CCGUGUGCACUUCGCUUCAUU; chain 2 UGAAGCGAAGUGCACACGGUU; chain 1: sugars from the 5' end [UNA]rrrmmrrrrrmrrrmrrrr[UNA], backbone not given here; chain 2: sugars from the 5' end r11 m1 r5 m1 r3, backbone not given here) [Compound 5m] has what pIC50?
Result: 10.22

Ask: Any idea what pIC50 was measured for 11m: siRNA duplex SEQ ID NO: 21 and 22 targeting the HBV genome (chain 1 GCCGAUCCAUACUGCGGAAUU; chain 2 UUCCGCAGUAUGGAUCGGCUU; chain 1: sugars from the 5' end [UNA]rrmrmrrrrrrmmrmmrrr[UNA], backbone not given here; chain 2: sugars from the 5' end rrrrrrrmrrrrmrrrrmrrr, backbone not given here) [Compound 11m] ?
Result: 9.51

Ask: Look at this substance and give its reported pIC50. 7m: siRNA duplex SEQ ID NO: 13 and 14 targeting the HBV genome (chain 1 CCGUGUGCACUUCGCUUCAUU; chain 2 UGAAGCGAAGUGCACACGGUU; chain 1: sugars from the 5' end [UNA]rrrmmrrrrrmrrrmrrr[UNA][UNA], backbone not given here; chain 2: sugars from the 5' end rrrrrrrrrrrmrrrrrmr[UNA][UNA], backbone not given here) [Compound 7m]
Result: 10.22
